Biological target: CYP3A4 (Homo sapiens, UniProt P08684)
Sequence (P08684 whole entry): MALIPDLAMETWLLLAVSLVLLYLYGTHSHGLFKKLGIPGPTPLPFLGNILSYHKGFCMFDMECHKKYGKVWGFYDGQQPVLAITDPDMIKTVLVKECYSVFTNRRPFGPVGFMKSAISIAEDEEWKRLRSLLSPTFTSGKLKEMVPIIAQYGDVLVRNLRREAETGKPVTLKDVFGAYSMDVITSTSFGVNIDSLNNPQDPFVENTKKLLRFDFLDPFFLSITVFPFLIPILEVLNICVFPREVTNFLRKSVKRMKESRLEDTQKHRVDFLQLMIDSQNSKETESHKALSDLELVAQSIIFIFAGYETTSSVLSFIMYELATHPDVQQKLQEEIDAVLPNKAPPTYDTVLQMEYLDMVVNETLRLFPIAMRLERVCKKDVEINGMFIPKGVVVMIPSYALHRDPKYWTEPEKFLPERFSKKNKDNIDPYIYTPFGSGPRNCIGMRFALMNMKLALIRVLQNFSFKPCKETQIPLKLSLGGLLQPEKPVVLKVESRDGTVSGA
Assay: Inhibition of CYP3A4 at 3 uM
Type: ADME

MOLECULE	EXPERIMENTAL_SYSTEM	inhibition at 3 µM
Fc1ccc(-c2cncnc2)c(C2Cc3nccn3C2)c1 (stereo unspecified)	CYP3A4 (Homo sapiens, UniProt P08684)	< 10%

---

Target: CYP2D6 (Homo sapiens, UniProt P10635)
Sequence (P10635 whole entry): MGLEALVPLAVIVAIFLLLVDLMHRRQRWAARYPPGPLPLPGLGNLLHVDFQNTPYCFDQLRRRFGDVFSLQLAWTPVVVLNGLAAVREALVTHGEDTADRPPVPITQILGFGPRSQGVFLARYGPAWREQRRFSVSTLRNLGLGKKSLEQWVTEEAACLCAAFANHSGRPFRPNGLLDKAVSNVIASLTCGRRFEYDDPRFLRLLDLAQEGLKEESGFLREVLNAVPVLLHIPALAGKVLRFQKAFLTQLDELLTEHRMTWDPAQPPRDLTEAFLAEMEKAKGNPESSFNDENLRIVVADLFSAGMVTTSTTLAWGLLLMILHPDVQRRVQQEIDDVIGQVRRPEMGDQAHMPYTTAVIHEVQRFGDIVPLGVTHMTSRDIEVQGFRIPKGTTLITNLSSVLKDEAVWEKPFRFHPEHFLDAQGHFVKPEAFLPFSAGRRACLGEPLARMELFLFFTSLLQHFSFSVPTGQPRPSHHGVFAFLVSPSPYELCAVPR
Assay: Inhibition of CYP2D6 at 3 uM
Assay type: ADME
EXPERIMENTAL_ENDPOINT: inhibition at 3 µM

MOLECULE	RESULT
Fc1ccc(-c2cncnc2)c(C2Cc3nccn3C2)c1 (stereo unspecified)	< 10%

---

Biological target: Alpha-2A adrenergic receptor (Homo sapiens, UniProt P08913)
Sequence (P08913 whole entry): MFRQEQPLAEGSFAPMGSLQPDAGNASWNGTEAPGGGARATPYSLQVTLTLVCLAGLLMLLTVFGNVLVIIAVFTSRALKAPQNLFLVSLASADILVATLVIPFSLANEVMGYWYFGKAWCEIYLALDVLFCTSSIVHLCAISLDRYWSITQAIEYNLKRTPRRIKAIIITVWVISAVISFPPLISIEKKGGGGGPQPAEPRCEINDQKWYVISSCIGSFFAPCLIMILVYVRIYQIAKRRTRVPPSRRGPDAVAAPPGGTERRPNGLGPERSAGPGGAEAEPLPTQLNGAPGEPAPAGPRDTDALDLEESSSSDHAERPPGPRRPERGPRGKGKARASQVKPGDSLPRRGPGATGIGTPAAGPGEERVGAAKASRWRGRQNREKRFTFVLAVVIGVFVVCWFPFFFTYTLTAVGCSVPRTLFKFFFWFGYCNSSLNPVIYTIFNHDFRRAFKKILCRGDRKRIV
Assay: Inhibition of adrenergic alpha2A receptor
pKi: −log10 of the molar value.

COMPOUND	pKi
CNS(=O)(=O)CCc1ccccc1[C@@H]1Cc2nccn2C1	6.55
Cn1cc(-c2ccccc2[C@@H]2Cc3nccn3C2)cn1	6.42
Fc1ccc(-c2cncnc2)c(C2Cc3nccn3C2)c1 (stereo unspecified)	< 5.56
COCc1c(Cl)ccc2c1CC[C@H]2c1ncc[nH]1	< 5.77
Fc1ccc(C2Cc3nccn3C2)c(-c2ncco2)c1 (stereo unspecified)	< 5.67
Fc1ccc(C2Cc3nccn3C2)c(-n2cccn2)c1 (stereo unspecified)	< 5.49

---

Each item that follows carries a reported EC50.
Biological target: Alpha-1B adrenergic receptor (Homo sapiens, UniProt P35368)
Sequence (P35368 whole entry): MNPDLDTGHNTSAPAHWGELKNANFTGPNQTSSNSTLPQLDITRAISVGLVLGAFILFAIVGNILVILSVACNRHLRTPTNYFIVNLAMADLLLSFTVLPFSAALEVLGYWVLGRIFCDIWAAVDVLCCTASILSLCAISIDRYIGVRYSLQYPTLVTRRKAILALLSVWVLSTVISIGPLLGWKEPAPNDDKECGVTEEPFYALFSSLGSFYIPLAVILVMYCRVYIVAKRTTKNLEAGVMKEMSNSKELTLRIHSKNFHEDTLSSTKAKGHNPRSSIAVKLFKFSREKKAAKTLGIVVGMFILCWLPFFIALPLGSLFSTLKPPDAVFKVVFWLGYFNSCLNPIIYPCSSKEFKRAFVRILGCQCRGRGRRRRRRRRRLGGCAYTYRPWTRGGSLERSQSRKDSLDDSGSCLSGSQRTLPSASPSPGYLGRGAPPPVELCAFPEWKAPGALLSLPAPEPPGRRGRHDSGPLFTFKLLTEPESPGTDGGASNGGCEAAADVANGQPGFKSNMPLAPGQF
Test: Agonist activity at human adrenergic Alpha-1B receptor expressed in CHO cells assessed as calcium mobilization by FLIPR

MOLECULE	EC50
c1ccc([C@H]2Cc3nccn3C2)c(-c2ncco2)c1	> 10 µM
N#Cc1ccccc1[C@@H]1Cc2nccn2C1	> 10 µM
c1ccc([C@@H]2Cc3nccn3C2)c(-c2ncco2)c1	> 1.4 µM
Fc1ccc(C2Cc3nccn3C2)c(-c2cncnc2)c1 (stereo unspecified)	> 10 µM
c1ccc([C@@H]2Cc3nccn3C2)c(-c2ccncc2)c1	> 10 µM
COCc1c(Cl)ccc2c1CC[C@H]2c1ncc[nH]1	> 10 µM
c1ccc(-c2ccccc2[C@@H]2Cc3nccn3C2)cc1	> 10 µM
Fc1ccc(-c2cncnc2)c(C2Cc3nccn3C2)c1 (stereo unspecified)	> 10 µM
CS(=O)(=O)Nc1cccc(-c2ccccc2[C@@H]2Cc3nccn3C2)c1	> 10 µM
Fc1ccc(C2Cc3nccn3C2)c(-n2cccn2)c1 (stereo unspecified)	> 10 µM
Fc1ccc(-n2cccn2)c(C2Cc3nccn3C2)c1 (stereo unspecified)	> 10 µM
c1cncc(-c2ccccc2[C@@H]2Cc3nccn3C2)c1	0.76 µM
c1ccc(-n2cccn2)c([C@@H]2Cc3nccn3C2)c1	> 10 µM
CNS(=O)(=O)CCc1ccccc1[C@@H]1Cc2nccn2C1	> 10 µM
Fc1ccc(-c2ncco2)c(C2Cc3nccn3C2)c1 (stereo unspecified)	0.99 µM
Fc1ccc(-c2cc[nH]n2)c(C2Cc3nccn3C2)c1 (stereo unspecified)	> 10 µM
c1ccc([C@@H]2Cc3nccn3C2)c(-c2cncnc2)c1	> 6.5 µM
Fc1ccc(C2Cc3nccn3C2)c(-c2cc[nH]n2)c1 (stereo unspecified)	> 10 µM
Fc1cccc(-c2cncnc2)c1C1Cc2nccn2C1 (stereo unspecified)	> 10 µM
CNC(=O)c1cccc(-c2ccccc2[C@@H]2Cc3nccn3C2)c1	> 10 µM
Fc1ccc(C2Cc3nccn3C2)c(-c2ncco2)c1 (stereo unspecified)	> 10 µM
